B1: TPPP (parent)
chain: LCKDCQVIDGRNVTVTDVDIVFSK

Variants of: B1
Test: protein stability index of a GFP-peptide fusion (GPS, HEK-293T) (PSI 1-6); higher = more stable;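 also: lentivirally expressed fusions sorted by FACS into six bins by GFP to DsRed ratio, PSI derived from sequencing read proportions per bin multiplied by bin number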
Details: c terminus: a fixed tail appended
Overview of reported protein stability index across a group of variants:
Just the number, please, no unit after it.

# example entries with known answers
Data request: // protein stability index lookup, key: LWKDCQVIDGRNVTVTDVDIVFSK [C2W]
Data returned: 2.56

Data request: Given the entry LCKDCQNIDGRNVTVTDVDIVFSK [V7N] , report its measured protein stability index.
Data returned: 2.61

More entries:
Data request: Look up protein stability index: LCKDCQVIDGRNVTVTDVDIVFSD [K24D]
Data returned: 2.77

Data request: For LCKDCQVIDGRNVTVTDLDIVFSK [V18L] , what is its reported protein stability index?
Data returned: 2.4

Data request: For the variant LCKDCQVIDGRNVTVTDVDIVFAK [S23A] , what protein stability index is on record?
Data returned: 2.55

Data request: Item LCKDCQVIDGRNVTETDVDIVFSK [V15E] has what recorded protein stability index?
Data returned: 3.64

Data request: Bench note: what protein stability index did LCKDCQVIDGRNVTVTDDDIVFSK [V18D] show?
Data returned: 3.58

Data request: May I ask what protein stability index has been recorded for LCKDCQVIDIRNVTVTDVDIVFSK [G10I] ?
Data returned: 1.3

Data request: Quick check: protein stability index of LCKDCQVIDGPNVTVTDVDIVFSK [R11P] ?
Data returned: 2.57

Data request: Fill in the blank: the reported protein stability index of LCKDCQVIKGRNVTVTDVDIVFSK [D9K] is ____.
Data returned: 2.48
